The reported measurements were obtained from paper PMC7340446.

target or test system: human PTHR1 (Homo sapiens, UniProt Q03431)
Construct: expressed in transfected cells
Sequence (Q03431 27-593): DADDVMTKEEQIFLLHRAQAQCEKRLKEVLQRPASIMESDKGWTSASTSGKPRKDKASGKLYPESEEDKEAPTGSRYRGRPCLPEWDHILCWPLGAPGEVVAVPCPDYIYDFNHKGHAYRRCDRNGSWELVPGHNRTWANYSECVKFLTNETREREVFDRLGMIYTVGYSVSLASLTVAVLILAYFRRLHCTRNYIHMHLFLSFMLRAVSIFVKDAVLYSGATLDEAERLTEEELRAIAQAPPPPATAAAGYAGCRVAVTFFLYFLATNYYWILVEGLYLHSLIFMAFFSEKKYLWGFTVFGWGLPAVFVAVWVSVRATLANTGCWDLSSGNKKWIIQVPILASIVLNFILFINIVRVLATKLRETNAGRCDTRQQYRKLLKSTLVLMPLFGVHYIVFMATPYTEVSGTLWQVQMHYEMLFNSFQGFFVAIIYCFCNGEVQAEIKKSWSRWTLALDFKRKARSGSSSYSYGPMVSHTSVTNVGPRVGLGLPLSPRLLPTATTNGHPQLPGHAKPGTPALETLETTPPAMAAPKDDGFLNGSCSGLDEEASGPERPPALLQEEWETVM
test name: GloSensor cAMP signaling assay in GP‐2.3 cells
Type: cell-based
Method: GP‐2.3 cells, an HEK‐293 cell‐ (ATCC CRL‐1573) derived cell line that stably expresses the luciferase‐based pGloSensor‐22F (GloSensor) cAMP reporter plasmid (Promega Corp., […], USA) along with the human PTHR1, were cultured in DMEM (Thermo Fisher Scientific, Waltham, MA, USA) supplemented with FBS (10%). […] Changes in cAMP levels were assessed in intact GP‐2.3 or UGS‐56 cells via the (GloSensor) cAMP reporter. […]
Where no end group is shown, it is not given here.
readout kind: Emax (%)
Report only the number, with the unit % understood.

AVAEIQLMHQRAKWLNSMERVEFLHHLIAEIHTAEI [M‐PTH(1‐22)/PTHrP(23‐36)]	104
AVAEIQLMHQRGKSIQDLRRRFFLHHLIAEIHTAEI [M‐PTH(1‐11)/PTHrP(12‐36)]	103
AVAEIQLMHQRAKWLNSMERVEWLRKLIAEIHTAEI [M‐PTH(1‐26)/PTHrP(27‐36)]	106

Continue with the sequence presented below.
So what does the record say about Emax for AVAEIQLMHQRAKWLNSLRRRFFLHHLIAEIHTAEI [M‐PTH(1‐17)/PTHrP(18‐36)] ? 105
